System: K4 kissing-loop RNA reporter;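 further: bound reporter read as fluorescence of individual clusters on recovered sequencing chips by microscopy, with normalized cluster intensities fitted with a binding model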
ASSAY OVERVIEW: apparent KD of K4 kissing-loop reporter; higher = weaker reporter binding
RUN CONDITIONS: Eterna round: R107; input ligand: tryptophan 2.4 mM
So basically: apparent KD of K4 kissing-loop reporter at 90 nM or higher? That is Condition met. Lower than 90 nM? That is Condition not met.

RESIDUE STRING: UGACUACAUAAGGAAUAAUCCUAGUGAUGUUAGGAUAUGCUGAUAAGCAGAAGGAACGGAGAUCGAAGGAUCUCAUAUGUAGUCU [whbob_Ex_FMNA__2th194]
QUALITATIVE LABEL: Condition met

RESIDUE STRING: AAUAAGCAUGGAAGGAGCGUAGUCCAGUGAUGUUGGAGUUAAAUACCAGUGAUGUUGGUUAUACAGGUAGGUCGCCAUAAAGCUU [Exclusion Arginine B Gf 6]
QUALITATIVE LABEL: Condition not met

Task item: Exam item: decide whether the reported apparent KD of K4 kissing-loop reporter for AGAUGACAGGGAGGAUAUCCUAAUAUGGGUGAUGUUAGCGAUGUUGAAGGUGUAGUGAUGUUAUGCGGAGAAGGCCCUGUUGUUU [BDazzled - #23 - Exc. FMN B] is at least 90 nM.
Reply: Condition not met

Task item: Exam item: decide whether the reported apparent KD of K4 kissing-loop reporter for AAUAAAAUCACGGCCGCCACUGAUUACCAUAUUAGGAGUGAUGUUCCUAUGACUAUAUAAUUUAACAGGACCGGGUGAAUAUUUA [JR_ExcTryptoB_Sub011] is at least 90 nM.
Reply: Condition met

Task item: Exam item: decide whether the reported apparent KD of K4 kissing-loop reporter for GGCGUCAAACCAGAACUAGUGAUGUUGGUUCGAGGACCGGUACGGCCGCCACUCGAUCUCUUGGUCCAUCGCGGAAGGGCAGCGG [theeternabot_exclusion_KL_Trp_A_29] is at least 90 nM.
Reply: Condition met

Task item: Exam item: decide whether the reported apparent KD of K4 kissing-loop reporter for UGACUGGAUGGAAGGAGCGCUAAACUCCUAGUGAUGUUAGGGAUACGAGACAAAGUCUUGAAGCAGGUAGGUCGCCAUCUAGUCU [FiskerMod 10 - Jieux - Same State - Arginine B] is at least 90 nM.
Reply: Condition met

Task item: Exam item: decide whether the reported apparent KD of K4 kissing-loop reporter for UUUUGGUUCUGAGGAUAUUCGAAGAAAUAUAGUGAUGUUAUAUAAGGAGGAGGAUGGAGGGAGGAAGGAGAAGGCAGAAGAGGAG [ExFMNB.I] is at least 90 nM.
Reply: Condition met

Task item: Exam item: decide whether the reported apparent KD of K4 kissing-loop reporter for CGCAGUGAUGUUGCGAGUAGCUACAGGGAAGGAGCGUGCUAGAGCACAGGUAGGUCGCCCUCGGGCAGUGAUGUUGCCAAAGGUU [Exclusion ARginine A GF 16] is at least 90 nM.
Reply: Condition not met
